Known MAR (malformation rate) of a selection of compounds
Test system: zebrafish embryos
condition.set: zebrafish embryos 72 hpf, 1 mg/mL
Protocol: In this experiment, 2% DMSO was used to dissolve the target products, and the abnormal rate (MAR) and mortality rate (MOR) of zebrafish embryos (72 hpf) were used for statistics. The zebrafish embryos were collected at 6 hpf and randomly divided into naive control (embryos maintained in distilled water), vehicle control (embryos treated with 2% DMSO), and drug groups. […] Each compound was evaluated in three independent biological experiments.
Marks after values point to notes of the source that are not given here.

# example entries with known answers
The compound listed as `COc1ccc2nc3ccccc3c(-n3c(-c4ccc([N+](=O)[O-])cc4)n[nH]c3=S)c2c1` has a reported MAR (malformation rate) of 5% ^b

The compound listed as COC1=CC2C(=Nc3nnc(-c4ccncc4)s3)c3ccccc3NC2C=C1 (centres unmarked) has a reported MAR (malformation rate) of 15% ^b

The compound listed as COc1ccc(-c2nnc(N=C3c4ccccc4NC4C=CC(C)=CC34)s2)cc1 (centres unmarked) has a reported MAR (malformation rate) of 35% ^b

Further cases:
The compound listed as `COc1ccc2[nH]c3ccccc3c(=NC(=S)NNC(=O)c3ccncc3)c2c1` has a reported MAR (malformation rate) of 85% ^c

====

System: zebrafish embryos
condition.set: zebrafish embryos 72 hpf, 1.5 mg/mL
measured.quantity: MAR (malformation rate) (% ^a)
Give a bare numeral; the unit % ^a is implied.

The compound listed as `COc1ccc2nc3ccccc3c(NC(=S)NNC(=O)c3ccccc3)c2c1` has a reported MAR (malformation rate) of 70

The compound listed as `COc1ccc(C(=O)NNC(=S)Nc2c3ccccc3nc3ccc(OC)cc23)cc1` has a reported MAR (malformation rate) of 60

The compound listed as `COc1ccc(-n2c(-c3c4ccccc4nc4ccc(C)cc34)n[nH]c2=S)cc1` has a reported MAR (malformation rate) of 10

The compound listed as `COc1ccc2nc3ccccc3c(-n3c(-c4ccc([N+](=O)[O-])cc4)n[nH]c3=S)c2c1` has a reported MAR (malformation rate) of 10

Let us move to another entry and its MAR (malformation rate).
The compound listed as `COc1ccc(C(=O)NNC(=S)Nc2c3ccccc3nc3ccc(C)cc23)cc1` has a reported MAR (malformation rate) of 85

====

Known MAR (malformation rate) of a selection of compounds
Test system: zebrafish embryos
condition.set: zebrafish embryos 72 hpf, 2 mg/mL
Experimental: In this experiment, 2% DMSO was used to dissolve the target products, and the abnormal rate (MAR) and mortality rate (MOR) of zebrafish embryos (72 hpf) were used for statistics. The zebrafish embryos were collected at 6 hpf and randomly divided into naive control (embryos maintained in distilled water), vehicle control (embryos treated with 2% DMSO), and drug groups. […] Each compound was evaluated in three independent biological experiments.
Give a bare numeral; the unit % ^c is implied.

# example entries with known answers
The compound listed as CC1=CC2C(=Nc3nnc(-c4ccc([N+](=O)[O-])cc4)s3)c3ccccc3NC2C=C1 (centres unmarked) [6i] has a reported MAR (malformation rate) of 25

The compound listed as COc1ccc2nc3ccccc3c(-n3c(-c4ccc([N+](=O)[O-])cc4)n[nH]c3=S)c2c1 [5d] has a reported MAR (malformation rate) of 10

Let us move to another entry and its MAR (malformation rate).
The compound listed as COC1=CC2C(=Nc3nnc(-c4ccc(Cl)cc4)s3)c3ccccc3NC2C=C1 (centres unmarked) [6e] has a reported MAR (malformation rate) of 35
